Tested on: PfIESI-1 RRM domain (Plasmodium falciparum ortholog aa 875-1232, GST fusion)
Assay: RBNS R-value (6-mer enrichment in protein-bound RNA vs input library) (ratio); higher = stronger binding preference
Settings: protein concentration: 1000 nM
The full ranking holds about 4,100 sequences; the median of “RBNS R-value (6-mer enrichment in protein-bound RNA vs input library)” is about 0.99, and the highest 2% start at about 1.4. This is one part of a sample in which the highest values are shown more often than they occur.
value-type: RBNS R-value
Quick one: just the number, no unit, thanks!

Examples with their reported RBNS R-value follow.
UCCCGA: 1.14
UAUGCG: 0.894
GAUGCG: 1.31

Challenge: Reported RBNS R-value, sequence CAUGCA : ____
Response given: 0.92

Challenge: Field request: RBNS R-value | item: UAUGCA
Response given: 0.85

Challenge: # get_value(readout='RBNS R-value', item= ACCCGA )
Response given: 1.4

Challenge: Please give the measured RBNS R-value for this sequence: UCGACU
Response given: 0.936

Challenge: For the sequence shown here, ACCCGC , give the reported RBNS R-value.
Response given: 1.23

Challenge: Entry GAGAAU has what RBNS R-value?
Response given: 1.37

Challenge: Which RBNS R-value reading was recorded for the sequence UGGCAU ?
Response given: 1.06

Challenge: Recorded RBNS R-value of UAUGGC , please.
Response given: 0.988

---

Tested on: PfIESI-1 RRM domain (Plasmodium falciparum ortholog aa 875-1232, GST fusion)
Test: RBNS R-value (6-mer enrichment in protein-bound RNA vs input library) (ratio); higher = stronger binding preference
Conditions: protein concentration: 1000 nM
Over roughly 4,100 sequences, “RBNS R-value (6-mer enrichment in protein-bound RNA vs input library)” has its median near 0.99; the highest 2% begin near 1.4. The sample as a whole holds a higher share of the highest values than the screen did.
Would you please tag the item 1 when its RBNS R-value is 1 or above, and -1 when it is below?

CGAUGA: 1
CAUUAG: -1

Attention now shifts to the item below.
Challenge: RBNS R-value >= 1 for AGAUAU ?
Response given: -1

---

Test system: PfIESI-1 RRM domain (Plasmodium falciparum ortholog aa 875-1232, GST fusion)
Assay: RBNS R-value (6-mer enrichment in protein-bound RNA vs input library) (ratio); higher = stronger binding preference; the methods of the paper give 50 / 100 / 500 nM protein instead
Details: protein concentration: 500 nM
Over roughly 4,100 sequences, “RBNS R-value (6-mer enrichment in protein-bound RNA vs input library)” has its median near 0.99; the highest 2% begin near 1.4. This excerpt belongs to a sample that is enriched for the highest values.
# RBNS R-value listing for each entry below
Give the value as a plain number.

Known results for sequences:
CUUAUA: 0.723
GACCCA: 1.12

Challenge: State its RBNS R-value on PfIESI-1 RRM domain (Plasmodium falciparum ortholog aa 875-1232, GST fusion): CUCCUU
Response given: 0.809

Challenge: So what RBNS R-value did AGAAAA get with PfIESI-1 RRM domain (Plasmodium falciparum ortholog aa 875-1232, GST fusion)?
Response given: 1.48

Challenge: API: value(readout=RBNS R-value, system=PfIESI-1 RRM domain (Plasmodium falciparum ortholog aa 875-1232, GST fusion)) for record CGAUGC
Response given: 1.22

Challenge: State its RBNS R-value on PfIESI-1 RRM domain (Plasmodium falciparum ortholog aa 875-1232, GST fusion): CUCAAC
Response given: 0.891

Challenge: What reported RBNS R-value corresponds to GAUGAG on PfIESI-1 RRM domain (Plasmodium falciparum ortholog aa 875-1232, GST fusion)?
Response given: 1.68

Challenge: Under PfIESI-1 RRM domain (Plasmodium falciparum ortholog aa 875-1232, GST fusion): RBNS R-value value of GAUGGU ?
Response given: 1.23

// data source = the supplement of paper PMC13392028
